These entries and their values trace back to patent US20200283521A1.

I'd appreciate it if you could supply EC50 (read off the curve) values for the items below.
# Assayed System: T1, human C-KIT-Fc (human, UniProt P10721 26-524)
# T1 construct: also called biotinylated human C-KIT-Fc; not shown: Fc part not described
# Assay Method Text: direct titration ELISA on coated C-KIT-Fc, IgG1 format

Quick batch: EC50 (read off the curve) for everything below.
1. MH1, human IgG1 (antibody, V domains shown, IgG1; also called IgG1-MH1) VH: QVQLVQSGAEVKKPGASVKVSCKASGYTFTDYYMNWVRQAPGQGLEWMGRIYPGSGNTYYAQKFQGRVTMTRDTSTSTVYMELSSLRSEDTAVYYCARGVYYYDYWGQGTLVTVSS VL: DIQMTQSPSSLSASVGDRVTITCRASQGIRTNLAWFQQKPGKAPKSLIYAASSLQSGVPSRFSGSGSGTDFTLTISSLQPEDFATYYCQQYNSYPRTFGGGTKVEIK
2. E-C2 (antibody, IgG1, V domains shown, IgG1; also called C-KIT-E-C2) VH: QVQLVQSGAEVKKPGASVKVSCKASGYTFTDYYMNWVRQAPGQGLEWMGRIYPGSGNTYYAQKFQGRVTMTRDTSTSTVYMELSSLRSEDTAVYYCARGVYYLDYWGQGTLVTVSS VL: DIQMTQSPSSLSASVGDRVTITCRASQGIRTNVAWLQQKPGKAPKSLIYSASYRQSGVPSRFSGSGSGTDFTLTISSLQPEDFATYYCQQYNSYPRTFGGGTKVEIK
3. MH5, human IgG1 (antibody, V domains shown, IgG1; also called C-KIT-MH5; C-KIT-MHS) VH: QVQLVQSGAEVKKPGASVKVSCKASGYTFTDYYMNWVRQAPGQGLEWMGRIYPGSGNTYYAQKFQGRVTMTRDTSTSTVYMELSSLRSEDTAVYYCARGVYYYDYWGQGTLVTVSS VL: DIQMTQSPSSLSASVGDRVTITCRASQGIRTNLAWFQQKPGKAPKSLIYSASSLQSGVPSRFSGSGSGTDFTLTISSLQPEDFATYYCQQYANYPRTFGGGTKVEIK
4. humanized h37M, human IgG1 (antibody, V domains shown, human IgG1; terbium-labelled as the tracer of the HTRF assays; also called C-KIT-h37M; h37M-IgG1) VH: QVQLVQSGAEVKKPGASVKLSCKASGYTFTDYYINWVRQAPGKGLEWIARIYPGSGNTYYNEKFKGRATLTADKSTSTAYMQLSSLRSEDTAVYFCARGVYYFDYWGQGTTVTVSS VL: DIVMTQSPSSLSASVGDRVTITCKASQNVRTNVAWYQQKPGKAPKALIYSASYRYSGVPDRFTGSGSGTDFTLTISSLQPEDFADYFCQQYNSYPRTFGGGTKVEIK

## Result
["~0.1 mg/L", "~0.1 mg/L", "~0.1 mg/L", "~0.2 mg/L"]
